We begin with a simple list: items and their reported IC50.
# Target: mutant HIV reverse transcriptase, K103N mutation (Human immunodeficiency virus type 1 group M subtype B, UniProt P04585, K690N)
# Assay: Analogous RT inhibition assay, K103N mutant
# Conditions Used: RT with K103N mutation
Measured Metric: IC50

>>> recorded_result("CC(C)CCS(=O)(=O)c1c(C(=O)NCc2nccn2C)[nH]c2ccc(Cl)cc12")
"< 2 µM"
>>> recorded_result("CC(C)CCS(=O)(=O)c1c(C(=O)NCc2n[nH]c3ccccc23)[nH]c2ccc(Cl)cc12")
"< 2 µM"
